What IC50 was measured for each of the following?
# assayed.target: Adenosine receptor A2b (Homo sapiens, UniProt P29275)
# Sequence (P29275 whole entry): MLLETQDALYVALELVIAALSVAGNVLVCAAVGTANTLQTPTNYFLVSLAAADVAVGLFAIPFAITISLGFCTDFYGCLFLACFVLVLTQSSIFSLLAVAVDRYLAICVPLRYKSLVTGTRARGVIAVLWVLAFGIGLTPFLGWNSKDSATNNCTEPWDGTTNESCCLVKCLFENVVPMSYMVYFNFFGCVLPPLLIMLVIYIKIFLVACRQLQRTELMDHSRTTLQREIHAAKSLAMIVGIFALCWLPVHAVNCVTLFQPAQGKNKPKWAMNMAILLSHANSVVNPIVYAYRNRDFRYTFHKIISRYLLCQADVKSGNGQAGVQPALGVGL
# assay.summary: Antagonist activity at human A2B receptor expressed in CHO cell membrane assessed as reduction in NECA-stimulated adenylyl cyclase activity in presence of [alpha32P]ATP

Query: IC50; subject: `CCOC(=O)[C@H](Cc1ccccc1)Nc1nc2nn(C)cc2c2nc(-c3ccco3)nn12`
Response: > 10 µM

Query: IC50; subject: CCOC(=O)C(C)Nc1nc2nn(C)cc2c2nc(-c3ccco3)nn12 (racemic)
Response: > 10 µM

Query: IC50; subject: CCOC(=O)C(Nc1nc2nn(C)cc2c2nc(-c3ccco3)nn12)c1ccccc1 (racemic)
Response: > 10 µM

###

outcome.measure: Ki (nM)
Form entry: value (nM) — number only.

Query: Fill in the recorded Ki for this compound, with Adenosine receptor A3 (Homo sapiens) as test system: CCOC(=O)C(Nc1nc2nn(C)cc2c2nc(-c3ccco3)nn12)C(C)C (racemic)
Sequence (P0DMS8 whole entry): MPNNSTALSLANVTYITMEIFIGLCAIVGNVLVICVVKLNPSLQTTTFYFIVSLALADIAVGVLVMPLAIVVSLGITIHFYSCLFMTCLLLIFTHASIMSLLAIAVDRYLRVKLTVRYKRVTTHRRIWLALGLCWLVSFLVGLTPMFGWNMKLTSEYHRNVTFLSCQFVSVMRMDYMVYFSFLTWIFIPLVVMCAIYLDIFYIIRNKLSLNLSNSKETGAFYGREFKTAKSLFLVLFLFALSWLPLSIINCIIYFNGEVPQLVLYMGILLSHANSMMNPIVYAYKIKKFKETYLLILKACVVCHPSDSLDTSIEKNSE
Response: 1.72

Query: Fill in the recorded Ki for this compound, with Adenosine receptor A3 (Homo sapiens) as test system: `COC(=O)[C@@H]1CCCN1c1nc2nn(C)cc2c2nc(-c3ccco3)nn12`
Response: 113

Query: Fill in the recorded Ki for this compound, with Adenosine receptor A3 (Homo sapiens) as test system: `CCOC(=O)C[C@H](Nc1nc2nn(C)cc2c2nc(-c3ccco3)nn12)C(=O)OCC`
Response: 16.3

Query: Fill in the recorded Ki for this compound, with Adenosine receptor A3 (Homo sapiens) as test system: CCOC(=O)C(Nc1nc2nn(C)cc2c2nc(-c3ccco3)nn12)C(O)c1ccccc1 (racemic)
Response: 46.5

Query: Fill in the recorded Ki for this compound, with Adenosine receptor A3 (Homo sapiens) as test system: `CCOC(=O)[C@H](Cc1ccccc1)Nc1nc2nn(C)cc2c2nc(-c3ccco3)nn12`
Response: 50.6

Query: Fill in the recorded Ki for this compound, with Adenosine receptor A3 (Homo sapiens) as test system: `CCOC(=O)[C@H](Cc1ccc(O)cc1)Nc1nc2nn(C)cc2c2nc(-c3ccco3)nn12`
Response: 24.6

###

Let's go through some pKi measurements on Adenosine receptor A2a (Homo sapiens) together.
Sequence (P29274 whole entry): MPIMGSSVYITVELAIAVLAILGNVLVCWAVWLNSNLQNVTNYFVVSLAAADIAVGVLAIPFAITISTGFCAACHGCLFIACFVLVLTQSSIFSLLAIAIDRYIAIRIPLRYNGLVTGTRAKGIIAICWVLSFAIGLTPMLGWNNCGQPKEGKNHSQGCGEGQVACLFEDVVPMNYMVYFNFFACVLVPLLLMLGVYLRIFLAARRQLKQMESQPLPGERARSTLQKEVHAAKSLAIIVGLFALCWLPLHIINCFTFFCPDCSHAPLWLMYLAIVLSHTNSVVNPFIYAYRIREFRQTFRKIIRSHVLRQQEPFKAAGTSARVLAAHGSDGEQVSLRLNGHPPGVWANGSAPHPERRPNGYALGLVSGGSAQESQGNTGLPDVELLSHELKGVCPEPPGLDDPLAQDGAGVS
// field semantics: pKi = negative decimal log of concentration (mol/L)

Query: pKi; subject: CCOC(=O)C(CO)Nc1nc2nn(C)cc2c2nc(-c3ccco3)nn12 (racemic)
Response: 6.46

Query: pKi; subject: `COC(=O)[C@@H]1CCCN1c1nc2nn(C)cc2c2nc(-c3ccco3)nn12`
Response: 6.37

Query: pKi; subject: CCOC(=O)C(Nc1nc2nn(C)cc2c2nc(-c3ccco3)nn12)C(C)C (racemic)
Response: 5.90

Query: pKi; subject: `CCOC(=O)[C@@H](Cc1c[nH]c2ccccc12)Nc1nc2nn(C)cc2c2nc(-c3ccco3)nn12`
Response: 6.05

Query: pKi; subject: `CCOC(=O)CCCNc1nc2nn(C)cc2c2nc(-c3ccco3)nn12`
Response: 6.64

###

Target sequence: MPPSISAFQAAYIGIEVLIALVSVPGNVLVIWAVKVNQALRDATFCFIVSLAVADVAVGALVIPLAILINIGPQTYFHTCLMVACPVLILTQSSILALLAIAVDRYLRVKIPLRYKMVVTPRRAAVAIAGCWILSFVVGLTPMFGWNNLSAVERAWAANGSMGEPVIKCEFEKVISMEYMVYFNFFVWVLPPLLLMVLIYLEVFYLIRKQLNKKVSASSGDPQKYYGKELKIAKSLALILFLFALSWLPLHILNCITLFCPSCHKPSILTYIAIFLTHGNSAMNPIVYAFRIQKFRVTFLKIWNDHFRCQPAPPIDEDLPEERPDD
What Ki was measured for each of the following?
Form entry: value (nM) — number only.

Query: Ki; subject: `CCOC(=O)[C@H](Cc1ccccc1)Nc1nc2nn(C)cc2c2nc(-c3ccco3)nn12`
Response: 1820

Query: Ki; subject: CCOC(=O)C(Nc1nc2nn(C)cc2c2nc(-c3ccco3)nn12)c1ccccc1 (racemic)
Response: 173

Query: Ki; subject: CCOC(=O)C(C)Nc1nc2nn(C)cc2c2nc(-c3ccco3)nn12 (racemic)
Response: 2200
